Target: T1, CTCF ZF3-ZF7 (human, UniProt P49711 317-467)
T1 sequence: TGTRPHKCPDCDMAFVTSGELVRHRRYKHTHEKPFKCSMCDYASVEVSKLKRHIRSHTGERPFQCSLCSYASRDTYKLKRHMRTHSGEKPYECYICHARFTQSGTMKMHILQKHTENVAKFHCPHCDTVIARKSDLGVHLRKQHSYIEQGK
Assay: EMSA

>  <binder>
M2 (FAM) (dsDNA) DNA 1: TACCACCAGGGGGCAGT DNA 2: ACTGCCCCCTGGTGGTA

>  <Kd, nM>
98.4

$$$$
